Cited source for all entries: ChEMBL document CHEMBL1138982

- Measured On: Substance-P receptor (Homo sapiens)
- Sequence (P25103 whole entry): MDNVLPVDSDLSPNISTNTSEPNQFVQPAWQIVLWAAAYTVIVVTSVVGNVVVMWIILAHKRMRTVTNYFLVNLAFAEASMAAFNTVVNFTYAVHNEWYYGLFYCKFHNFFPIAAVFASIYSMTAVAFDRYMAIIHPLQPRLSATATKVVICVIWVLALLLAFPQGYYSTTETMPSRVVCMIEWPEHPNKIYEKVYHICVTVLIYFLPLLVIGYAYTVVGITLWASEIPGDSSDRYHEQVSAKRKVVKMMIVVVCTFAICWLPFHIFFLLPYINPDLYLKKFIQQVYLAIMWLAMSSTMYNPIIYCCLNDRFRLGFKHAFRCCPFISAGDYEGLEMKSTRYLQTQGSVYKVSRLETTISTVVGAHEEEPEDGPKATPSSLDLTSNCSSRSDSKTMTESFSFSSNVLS
# strict inequality: Ki < 20 nM yields satisfied, everything else yields not satisfied

given_smiles=Cc1ccccc1-c1ccccc1/C=N/Nc1c(Cl)cncc1Cl label_class="not satisfied"
given_smiles=Cc1ccccc1-c1cnc(N2CCN(C)CC2)nc1N(C)C(=O)C(C)(C)c1cc(C(F)(F)F)cc(C(F)(F)F)c1 label_class=satisfied
given_smiles=CN(C(=O)c1ccccc1-c1ccccc1)C(C)(C)c1cc(C(F)(F)F)cc(C(F)(F)F)c1 label_class="not satisfied"
given_smiles=CC(C)(NC(=O)c1ccccc1-c1ccccc1)c1cc(C(F)(F)F)cc(C(F)(F)F)c1 label_class="not satisfied"
given_smiles=Cc1ccccc1-c1cc(N2CCN(C)CC2)ncc1N(C)C(=O)C(C)(C)c1cc(C(F)(F)F)cc(C(F)(F)F)c1 label_class=satisfied
given_smiles=Cc1ccccc1-c1nc(N2CCN(C)CC2)ncc1N(C)C(=O)C(C)(C)c1cc(C(F)(F)F)cc(C(F)(F)F)c1 label_class=satisfied

Request: Quick check: Ki of Clc1cncc(Cl)c1N/N=C/c1ccccc1-c1ccccc1 under 20 nM?
Response: not satisfied

Request: Then this compound: CN(Cc1cc(C(F)(F)F)cc(C(F)(F)F)c1)C(=O)c1ccccc1-c1ccccc1
Response: not satisfied

Request: Again, but for Cc1ccccc1-c1cc(N2CCS(=O)(=O)CC2)ncc1N(C)C(=O)C(C)(C)c1cc(C(F)(F)F)cc(C(F)(F)F)c1
Response: satisfied

Request: And then Clc1cncc(Cl)c1N/N=C/c1ccccc1-c1c(Cl)cccc1Cl , what is it?
Response: not satisfied
